Assay Text: Maximal solubility of the synthetic peptides in water and in DMSO (sheet Peptide_mixes)
Type: physicochemical
Stated Conditions: in water; number before the bracket in the cell
Excerpt: Supplement elife-90674-supp3.xlsx, sheet "Peptide_mixes"
No end group written: not given here.
Quantity Name: max solve water

Exam item: Please report the recorded max solve water for GPPQGLRW-NH2 [LRWa3] .
Marked response: 5 (5) mg/ml

Exam item: Please report the recorded max solve water for APRGGRSLLDLLAAPRG-NH2 [PRGa1] .
Marked response: 10 (10) mg/ml

Exam item: Please report the recorded max solve water for APRGGRDAPRG-NH2 [PRGa5] .
Marked response: 10 (10) mg/ml

Exam item: Please report the recorded max solve water for GPRGGRATEFGPRG-NH2 [PRGa3] .
Marked response: 10 (10) mg/ml

* * *

Assignment: determine reported max solve (DMSO) for the given molecules.
Assay Text: Maximal solubility of the synthetic peptides in water and in DMSO (sheet Peptide_mixes)
Type: physicochemical
Stated Conditions: in DMSO; number in brackets in the cell
Excerpt: Supplement elife-90674-supp3.xlsx, sheet "Peptide_mixes"
Residues, ends and D or L forms follow the SMILES beside them.

Exam item: Please report the recorded max solve (DMSO) for CC(C)C[C@H](NC(=O)[C@@H](N)Cc1ccccc1)C(=O)N[C@@H](CCCNC(=N)N)C(=O)N[C@@H](CC(N)=O)C(N)=O [FLRNa] (H-FLRN-NH2) .
Marked response: 10 (10) mg/ml

Exam item: Please report the recorded max solve (DMSO) for N=C(N)NCCC[C@H](NC(=O)[C@@H]1CCCN1C(=O)CN)C(=O)NCC(N)=O [PRGa] (H-GPRG-NH2) .
Marked response: 10 (10) mg/ml

Exam item: Please report the recorded max solve (DMSO) for C[C@H](NC(=O)[C@H](CCCCN)NC(=O)[C@H](Cc1ccccc1)NC(=O)[C@@H](N)Cc1ccccc1)C(N)=O [FFKAa] (H-FFKA-NH2) .
Marked response: 10 (10) mg/ml
